# literature pull: JNK2 (Homo sapiens (Human)) IC50
quantity kind: IC50

O=C(Cc1ccc2c(c1)OCCO2)Nc1ccsc1-c1ncn[nH]1 ... 0.1 to 10 µM
COc1ccc(CC(=O)Nc2scc(C)c2-c2nc(C)n[nH]2)cc1 ... 0.1 to 10 µM
Cn1cnc(-c2c(C#N)csc2NC(=O)CN2C(=O)CCc3ncccc32)n1 ... < 0.1 µM
O=C(Nc1ccc(C(F)(F)F)cc1)Nc1cccc(C(=O)c2c[nH]c3ncc(-c4cccnc4)cc23)c1 ... ≤ 10 µM
